Several reports have described IC50 for Prostaglandin G/H synthase 1 (Ovis aries, UniProt P05979); a selection of those results is presented here.
experimental readout: IC50 (µM)

[[record]]
compound = "CSc1ncc(-c2ccc(S(C)(=O)=O)cc2)n1-c1ccc(Br)cc1"
result = 0.43


P: Cc1ccc(NC(=O)c2c(N=Cc3ccc4ccccc4c3)c(C#N)c3n2CCC3)cc1
Q: Cc1ccc(-c2cc(C(F)(F)F)nn2-c2ccc(S(N)(=O)=O)cc2)c(O)c1
Inquiry: Among P and Q , which shows a numerically higher IC50 result? Answer by quoting the chosen item's label.
Reply text: Q
(Q: 36 µM, P: 12 µM)

a: CS(=O)(=O)c1ccc(C(=O)c2ccsc2)cc1
b: CCSC[C@@H]1C[C@@](O)(c2ccccc2)C[C@H](c2ccccc2)O1 (relative stereo)
c: COc1ccc(C2=C(c3ccnc(F)c3)C(=O)OC2)cc1
d: NS(=O)(=O)c1ccc(-n2nc(C(F)(F)F)cc2-c2ccc(F)cc2)cc1CO
e: Cc1ccc(NC(=O)c2c(N=Cc3cccs3)c(C#N)c3n2CCC3)cc1
Inquiry: Arrange the 5 entries by IC50 so the values rise. A complete answer lists every label in the requested sequence.
Reply text: b, c, e, a, d
(b: 2.93 µM, c: 4.6 µM, e: 10.4 µM, a: 144 µM, d: 500 µM)

I: Cc1ccc(Cl)c(Nc2ccccc2C(=O)NOCc2ccccc2)c1Cl
II: CC(C)Cc1ccc(C(C)C(=O)OCCn2c3ccccc3c(=O)c3ccccc32)cc1 (configuration not stated)
III: O=C(N[C@@H](Cc1ccccc1)C(=O)N[C@@H](CS)C(=O)N[C@@H](CO)C(=O)O)c1ccc(F)cc1
Inquiry: Sort these compounds on IC50 so the largest reading comes first. A complete answer lists every label in the requested sequence.
Reply text: II, III, I
